Values from patent EP0097439A2

Procedure Summary: Plasma levels of 9-deoxo-16,16-dimethyl-9-methylene-PGE2 by radioimmunoassay after insertion of a suppository
Assay type: in vivo, Rhesus monkeys (Macaca mulatta)
Condition Context: rhesus monkey, plasma, 30 mg, plasma; Monkey #3 (pregnant animal with uterine recording); 24.0 Hours; 30 mg Free Acid in H15 Suppositories; read-out: Drug Levels
Recorded Endpoint: concentration at 24 h (ng/mL)

Compound	Recorded Endpoint	Assay Value
C=C1C[C@@H](O)[C@H](/C=C/[C@@H](O)C(C)(C)CCCC)[C@H]1C/C=C\CCCC(=O)O [Free Acid, 9-deoxo-16,16-dimethyl-9-methylene-PGE2]	concentration at 24 h	5.67

---

Procedure Summary: Plasma levels of 9-deoxo-16,16-dimethyl-9-methylene-PGE2 by radioimmunoassay after insertion of a suppository
Assay type: in vivo, Rhesus monkeys (Macaca mulatta)
Condition Context: rhesus monkey, plasma, 30 mg, plasma; Monkey #12 (pregnant animal with uterine recording); 1.5 Hours; 30 mg Potassium Salt in H15 Plus 2% CSD Suppositories; read-out: Drug Levels
Protocol: A. Midtrimester pregnant female Rhesus monkeys (Macaca mulatta) are used. […] D. The plasma levels of 9-deoxo-16,16-d1methy1-9-methy1ene-PGE2 in monkeys treated with 6 formulations containing either 9-deoxo-16,16-dimethyl-9-methylene-PGE2 free acid or potassium salt are shown in Tables 1-6. In general, higher blood levels are measured in pregnant Rhesus monkeys than in non-pregnant monkeys.
Structures can show the parent of a compound that is named as a salt.

Compound	concentration at 1.5 h
C=C1C[C@@H](O)[C@H](/C=C/[C@@H](O)C(C)(C)CCCC)[C@H]1C/C=C\CCCC(=O)O [Potassium Salt]	91.1 ng/mL

---

Procedure Summary: Plasma levels of 9-deoxo-16,16-dimethyl-9-methylene-PGE2 by radioimmunoassay after insertion of a suppository
Type: in vivo, Rhesus monkeys (Macaca mulatta)
Condition Context: rhesus monkey, plasma, 30 mg, plasma; Monkey #5; 2 Hours; 30 mg Potassium Salt in H15 Suppositories; read-out: Drug Levels
Counter-ions that a name gives are not always drawn.
Recorded Endpoint: concentration at 2 h

Compound	Assay Value
C=C1C[C@@H](O)[C@H](/C=C/[C@@H](O)C(C)(C)CCCC)[C@H]1C/C=C\CCCC(=O)O [Potassium Salt]	11.5 ng/mL

---

Procedure Summary: Plasma levels of 9-deoxo-16,16-dimethyl-9-methylene-PGE2 by radioimmunoassay after insertion of a suppository
Format: in vivo, Rhesus monkeys (Macaca mulatta)
Condition Context: rhesus monkey, plasma, 30 mg, plasma; Monkey #1; 6.0 Hours; 30 mg Free Acid in H15 Suppositories; read-out: Drug Levels

Compound	concentration at 6 h (ng/mL)
C=C1C[C@@H](O)[C@H](/C=C/[C@@H](O)C(C)(C)CCCC)[C@H]1C/C=C\CCCC(=O)O [Free Acid, 9-deoxo-16,16-dimethyl-9-methylene-PGE2]	10.1

---

Procedure Summary: Plasma levels of 9-deoxo-16,16-dimethyl-9-methylene-PGE2 by radioimmunoassay after insertion of a suppository
Format: in vivo, Rhesus monkeys (Macaca mulatta)
Condition Context: rhesus monkey, plasma, 30 mg, plasma; Monkey #12 (pregnant animal with uterine recording); 6 Hours; 30 mg Potassium Salt in H15 Plus 2% CSD Suppositories; read-out: Drug Levels
Structures can show the parent of a compound that is named as a salt.

Compound	concentration at 6 h [ng/mL]
C=C1C[C@@H](O)[C@H](/C=C/[C@@H](O)C(C)(C)CCCC)[C@H]1C/C=C\CCCC(=O)O [Potassium Salt]	22.5
